TARGET UNDER TEST: PDE4B (human recombinant) (Homo sapiens)
Construct: made in house
METHOD SUMMARY: PDE4B inhibition, fluorescence polarisation (FP) and/or SPA assay
Type: biochemical
CONDITION LABEL: n=1 or average of 2 or more readings, accuracy ±about 0.5 log unit, read-out: PDE4B pIC50 (generally in FP assay) (±about 0.5) (converted)
Where a name gives a salt, the structure may show the parent alone.
Recorded IC50 values for a group of molecules are listed next.

{"MOLECULE": "CCc1nc2c(cnn2CC)c(NC2CCN(C(N)=O)CC2)c1CNC(=O)Cc1ccc(C(=O)NCc2c(CC)nc3c(cnn3CC)c2NC2CCN(C(N)=O)CC2)cc1 [Example 15, trifluoroacetate]", "IC50": "0.0158 to 0.1 nM"}
{"MOLECULE": "CCc1nc2c(cnn2CC)c(NC2CCOCC2)c1CNC(=O)Cc1ccc(CC(=O)NCc2c(CC)nc3c(cnn3CC)c2NC2CCOCC2)cc1 [Example 6]", "IC50": "0.126 to 1 nM"}
{"MOLECULE": "CCc1nc2c(cnn2CC)c(NC2CCOCC2)c1CNC(=O)c1cccc(-c2cccc(C(=O)NCc3c(CC)nc4c(cnn4CC)c3NC3CCOCC3)c2)c1 [Example 10]", "IC50": "~0.1 nM"}
{"MOLECULE": "CCc1nc2c(cnn2CC)c(NC2CCN(C(N)=O)CC2)c1CNC(=O)CS(=O)(=O)CC(=O)NCc1c(CC)nc2c(cnn2CC)c1NC1CCN(C(N)=O)CC1 [Example 12, trifluoroacetate]", "IC50": "0.0158 to 0.1 nM"}
{"MOLECULE": "CCc1nc2c(cnn2CC)c(NC2CCOCC2)c1CNC(=O)c1ccnc(-c2cc(C(=O)NCc3c(CC)nc4c(cnn4CC)c3NC3CCOCC3)ccn2)c1 [Example 31]", "IC50": "0.0158 to 0.1 nM"}

###

Entries and their measured IC50 follow.
TARGET UNDER TEST: PDE4B (human recombinant) (Homo sapiens, UniProt Q07343)
Construct: made in house
Sequence (Q07343 1-564 isoform Q07343-2): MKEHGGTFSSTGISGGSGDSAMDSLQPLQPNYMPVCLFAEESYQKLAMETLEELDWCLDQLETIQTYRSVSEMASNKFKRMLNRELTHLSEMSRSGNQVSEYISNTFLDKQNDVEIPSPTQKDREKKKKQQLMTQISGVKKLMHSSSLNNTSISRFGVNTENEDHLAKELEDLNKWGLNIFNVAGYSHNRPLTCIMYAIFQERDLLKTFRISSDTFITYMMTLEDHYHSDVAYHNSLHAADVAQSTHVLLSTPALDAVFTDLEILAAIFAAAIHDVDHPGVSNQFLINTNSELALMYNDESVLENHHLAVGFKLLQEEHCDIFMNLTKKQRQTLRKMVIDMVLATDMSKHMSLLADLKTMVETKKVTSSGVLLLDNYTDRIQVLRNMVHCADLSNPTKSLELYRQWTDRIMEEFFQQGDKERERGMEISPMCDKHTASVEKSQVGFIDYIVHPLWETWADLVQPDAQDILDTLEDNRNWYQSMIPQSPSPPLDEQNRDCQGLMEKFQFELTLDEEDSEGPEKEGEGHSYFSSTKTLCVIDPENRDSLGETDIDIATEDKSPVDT
METHOD SUMMARY: PDE4B inhibition, fluorescence polarisation (FP) and/or SPA assay
Assay type: biochemical
CONDITION LABEL: n=1 or average of 2 or more readings, accuracy ±about 0.5 log unit, read-out: PDE4B pIC50 (generally in FP assay) (±about 0.5) (converted)
Where a name gives a salt, the structure may show the parent alone.

{"MOLECULE": "CCc1nc2c(cnn2CC)c(NC2CCOCC2)c1CNC(=O)Cc1cccc(CC(=O)NCc2c(CC)nc3c(cnn3CC)c2NC2CCOCC2)c1", "TARGET UNDER TEST": "PDE4B (human recombinant) (Homo sapiens, UniProt Q07343)", "IC50": "0.126 to 1 nM"}
{"MOLECULE": "CCc1nc2c(cnn2CC)c(NC2CCN(C(N)=O)CC2)c1CNC(=O)CC(C)(C)CC(=O)NCc1c(CC)nc2c(cnn2CC)c1NC1CCN(C(N)=O)CC1 [Example 19, trifluoroacetate]", "TARGET UNDER TEST": "PDE4B (human recombinant) (Homo sapiens, UniProt Q07343)", "IC50": "0.0158 to 0.1 nM"}
{"MOLECULE": "CCc1nc2c(cnn2CC)c(NC2CCOCC2)c1CNC(=O)COCC(=O)NCc1c(CC)nc2c(cnn2CC)c1NC1CCOCC1", "TARGET UNDER TEST": "PDE4B (human recombinant) (Homo sapiens, UniProt Q07343)", "IC50": "0.126 to 1 nM"}
{"MOLECULE": "CCc1nc2c(cnn2CC)c(NC2CCOCC2)c1CNC(=O)c1ccc(C(=O)NCc2c(CC)nc3c(cnn3CC)c2NC2CCOCC2)o1", "TARGET UNDER TEST": "PDE4B (human recombinant) (Homo sapiens, UniProt Q07343)", "IC50": "~0.0398 nM"}
{"MOLECULE": "CCc1nc2c(cnn2CC)c(NC2CCOCC2)c1CNC(=O)c1ccc(C(=O)NCc2c(CC)nc3c(cnn3CC)c2NC2CCOCC2)cc1", "TARGET UNDER TEST": "PDE4B (human recombinant) (Homo sapiens, UniProt Q07343)", "IC50": "0.126 to 1 nM"}
{"MOLECULE": "CCc1nc2c(cnn2CC)c(NC2CCOCC2)c1CNC(=O)CC(C)(C)CC(=O)NCc1c(CC)nc2c(cnn2CC)c1NC1CCOCC1", "TARGET UNDER TEST": "PDE4B (human recombinant) (Homo sapiens, UniProt Q07343)", "IC50": "0.0158 to 0.1 nM"}
{"MOLECULE": "CCc1nc2c(cnn2CC)c(NC2CCN(C(N)=O)CC2)c1CNC(=O)c1ccc(-c2ccc(C(=O)NCc3c(CC)nc4c(cnn4CC)c3NC3CCN(C(N)=O)CC3)cc2)cc1", "TARGET UNDER TEST": "PDE4B (human recombinant) (Homo sapiens, UniProt Q07343)", "IC50": "0.0158 to 0.1 nM"}
{"MOLECULE": "CCc1nc2c(cnn2CC)c(NC2CCN(C(N)=O)CC2)c1CNC(=O)C1CCC(C(=O)NCc2c(CC)nc3c(cnn3CC)c2NC2CCN(C(N)=O)CC2)CC1 (stereo not drawn) [Example 11, trifluoroacetate]", "TARGET UNDER TEST": "PDE4B (human recombinant) (Homo sapiens, UniProt Q07343)", "IC50": "0.0158 to 0.1 nM"}
{"MOLECULE": "CCc1nc2c(cnn2CC)c(NC2CCN(C(N)=O)CC2)c1CNC(=O)CCc1ccc(C(=O)NCc2c(CC)nc3c(cnn3CC)c2NC2CCN(C(N)=O)CC2)cc1 [Example 14, trifluoroacetate]", "TARGET UNDER TEST": "PDE4B (human recombinant) (Homo sapiens, UniProt Q07343)", "IC50": "0.0158 to 0.1 nM"}
{"MOLECULE": "CCc1nc2c(cnn2CC)c(NC2CCOCC2)c1CNC(=O)CCc1ccc(C(=O)NCc2c(CC)nc3c(cnn3CC)c2NC2CCOCC2)cc1", "TARGET UNDER TEST": "PDE4B (human recombinant) (Homo sapiens, UniProt Q07343)", "IC50": "0.0158 to 0.1 nM"}
{"MOLECULE": "CCn1ncc2c(NC3CCOCC3)c(CNC(=O)c3ccc(-c4ccc(C(=O)NCc5c(C)nc6c(cnn6CC)c5NC5CCOCC5)cc4)cc3)c(C)nc21", "TARGET UNDER TEST": "PDE4B (human recombinant) (Homo sapiens, UniProt Q07343)", "IC50": "~0.0251 nM"}
{"MOLECULE": "CCc1nc2c(cnn2CC)c(NC2CCOCC2)c1CNC(=O)CCCC(=O)NCc1c(CC)nc2c(cnn2CC)c1NC1CCOCC1", "TARGET UNDER TEST": "PDE4B (human recombinant) (Homo sapiens, UniProt Q07343)", "IC50": "0.126 to 1 nM"}
